- tested on: T1, TEV-cleaved wild-type recombinant human galectin-10 (soluble, in Fab complexes, or as recombinant galectin-10 … (human, UniProt Q05315 1-142))
- T1 sequence: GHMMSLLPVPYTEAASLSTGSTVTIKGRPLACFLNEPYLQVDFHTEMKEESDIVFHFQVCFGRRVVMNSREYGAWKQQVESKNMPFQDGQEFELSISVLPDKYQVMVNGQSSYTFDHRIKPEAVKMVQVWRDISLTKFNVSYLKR
- measurement protocol: cell-based or functional assay
Reported 100% Solubilization of CLC (Conc uM) is given for each of the following binders.
Quick note: give the figure in µM, leave out the unit.

These solved cases illustrate the format of a correct answer.
Ask: Could you please provide reported 100% Solubilization of CLC (Conc uM) for 1D11 mouse IgG1 (antibody, V domains shown, VH on mouse IgG1 heavy chain constant domains (CH1-CH2-CH3), VL on mouse lambda light chain constant domain; also called 1D011; 1D11 mIgG1) VH: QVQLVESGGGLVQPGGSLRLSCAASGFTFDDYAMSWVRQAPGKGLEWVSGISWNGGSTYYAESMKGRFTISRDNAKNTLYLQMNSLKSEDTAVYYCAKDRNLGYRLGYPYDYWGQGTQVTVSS VL: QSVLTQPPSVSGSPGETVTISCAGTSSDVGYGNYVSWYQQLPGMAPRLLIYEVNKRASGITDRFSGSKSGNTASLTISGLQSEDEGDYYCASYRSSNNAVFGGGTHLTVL ? Thanks!
Reply: 7.86

Ask: Specify measured 100% Solubilization of CLC (Conc uM) for 1C09 mouse IgG1 (antibody, V domains shown, VH on mouse IgG1 heavy chain constant domains (CH1-CH2-CH3), VL on mouse lambda light chain constant domain; also called 1C09 mIgG1) VH: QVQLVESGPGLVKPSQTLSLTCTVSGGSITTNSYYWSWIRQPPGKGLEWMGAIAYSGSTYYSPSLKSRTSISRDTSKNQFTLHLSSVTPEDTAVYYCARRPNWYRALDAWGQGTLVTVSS VL: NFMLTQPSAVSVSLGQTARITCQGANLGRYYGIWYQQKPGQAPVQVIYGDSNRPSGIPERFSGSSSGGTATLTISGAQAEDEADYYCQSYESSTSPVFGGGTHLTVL .
Reply: 10.5

Further cases:
Ask: Fill in reported 100% Solubilization of CLC (Conc uM) for this entry: 6F05 scFv-human Fc (Fc fusion, about 100 kDa on SDS-PAGE; also called 6F5; 6F05 ScFv-hFc; not shown: CH2-CH3 constant domains of human IgG1 (vector pUPEX50)) scFv: QLQLVESGGGLVQPGGSLRLSCAASGFTFSSYAMSWVRQAPGKGLEWVSAINSGGGSTSYADSVKGRFTISRDNAKNTLYLQMNSLKPEDTAVYYCATPGDRLWYYRYDYWGQGTQVTVSSGGGGSGGGGSGGGGSQAGLTQPPSVSGTLGKAVTISCAGTSSDIGYGNYVSWYQQLPGTAPKLLIYKVSRRASGVPDRFSGSKSGNTASLSISGLQSEDEADYYCASYRYRNNVVFGGGTHLTVL
Reply: 4
